System: human SMAD7 mRNA
test-name: Antisense inhibition of human SMAD7 mRNA expression in Hep3B cells by 3-10-3 cEt gapmers, 10,000 nM, electroporation (Example 2)
Assay type: cell-based
condition-summary: SMAD7 mRNA, Hep3B cells, electroporation with 10,000 nM antisense oligonucleotide, approximately 24 hours, primer probe set RTS5062, relative to untreated control cells
Strand notation (5' to 3'): a small letter for the sugar, then the base; units joined by * are phosphorothioate-linked, units joined directly phosphodiester-linked; [ ] holds rarer units or linkages, { } end groups; capitals alone tell only the bases. k = constrained ethyl (cEt); [5mC] = 5-methylcytosine; d = 2'-deoxy (DNA)
# Lookup of reported % Inhibition keyed by entry
Record the value in %, omitting the unit from your answer.

substance: 829887 (antisense k[5mC]*kG*kT*dG*dG*dT*d[5mC]*dA*dT*dT*dG*dG*dG*k[5mC]*k[5mC]*kG) [compound 829887]
observation-type: % Inhibition
u: %
recorded-measurement: 47
//
substance: 829862 (antisense k[5mC]*kT*kG*d[5mC]*dT*dG*d[5mC]*dG*dG*dT*dT*dG*dT*kA*k[5mC]*kA) [compound 829862]
observation-type: % Inhibition
u: %
recorded-measurement: 22
//
substance: 829878 (antisense kG*kA*kG*dT*d[5mC]*d[5mC]*dG*dG*dG*dT*dT*dG*dT*k[5mC]*k[5mC]*kA) [compound 829878]
observation-type: % Inhibition
u: %
recorded-measurement: 18
//
substance: 829833 (kG*kT*kG*dA*d[5mC]*d[5mC]*dG*dA*dT*d[5mC]*d[5mC]*d[5mC]*d[5mC]*kA*kG*kG; antisense) [compound 829833]
observation-type: % Inhibition
u: %
recorded-measurement: 0
//
substance: 829822 (kT*kG*kT*dT*dT*d[5mC]*dA*dG*d[5mC]*dG*dG*dA*dG*kG*kA*kA; antisense) [compound 829822]
observation-type: % Inhibition
u: %
recorded-measurement: 43

Quote human SMAD7 mRNA % Inhibition for entry 829864 (antisense kG*kG*kG*dT*dA*dA*d[5mC]*dT*dG*d[5mC]*dT*dG*d[5mC]*kG*kG*kT) [compound 829864] . 68

====

Test system: human peripheral blood mononuclear cells (PBMCs)
test-name: Human PBMC activation assay, cytokine levels (IL-10, IL-6, MCP-1, TNF-α) in supernatant after 24 hours (Example 9)
condition-summary: human PBMC supernatant after 24 hours; 40 μM oligonucleotide
Each entry gets Criterion not met if its Levels of MCP-1 stays under 2000 pg/mL, and Criterion met if its Levels of MCP-1 is 2000 pg/mL or above.

// below: answered substances
substance: 830025 (antisense TTTGTAAATCGAAAGC; 3-10-3 cEt gapmer, further chemistry not given here) [compound 830025]
assigned-label: Criterion not met

substance: 736697 (antisense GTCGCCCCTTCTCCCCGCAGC; chemistry not fully specified) [compound 736697]
assigned-label: Criterion met

substance: 830121 (AGAATCAAGCCCTGGC; 3-10-3 cEt gapmer, further chemistry not given here) [compound 830121]
assigned-label: Criterion not met

substance: 798781 (CGTAAGATTCACAGCA; 3-10-3 cEt gapmer, further chemistry not given here) [compound 798781]
assigned-label: Criterion not met

substance: 790615 (CCAATGAGAATGCTTC; 3-10-3 cEt gapmer, further chemistry not given here) [compound 790615]
assigned-label: Criterion not met

Form field: Levels of MCP-1 at least 2000 pg/mL? Entry: 830037 (antisense CTATTGGCTGATCTGG; 3-10-3 cEt gapmer, further chemistry not given here) [compound 830037] Criterion met

====

# Lookup of reported % inhibition of SMAD7 mRNA expression keyed by entry
Tested on: human SMAD7 mRNA
test-name: Dose-dependent inhibition of human SMAD7 mRNA expression in Hep3B cells (Example 3, Study 1 and 2)
Type: cell-based
condition-summary: 2220 nM, electroporation, approximately 16 hours, Study 2
Strand notation (5' to 3'): a small letter for the sugar, then the base; units joined by * are phosphorothioate-linked, units joined directly phosphodiester-linked; [ ] holds rarer units or linkages, { } end groups; capitals alone tell only the bases. k = constrained ethyl (cEt); [5mC] = 5-methylcytosine; d = 2'-deoxy (DNA)
Record the value in %, omitting the unit from your answer.

// below: answered substances
substance: 830100 (kG*kG*kA*dG*d[5mC]*dT*d[5mC]*dA*dA*dA*d[5mC]*dT*dT*kT*kG*kA; antisense) [compound 830100]
observation-type: % inhibition of SMAD7 mRNA expression
recorded-measurement: 8
--
substance: 830207 (kA*kG*kG*dT*dG*dA*d[5mC]*dT*d[5mC]*dA*dT*d[5mC]*dA*kG*kG*k[5mC]; antisense) [compound 830207]
observation-type: % inhibition of SMAD7 mRNA expression
recorded-measurement: 74
--
substance: 830095 (kT*kG*kA*dG*dT*dA*dA*dA*d[5mC]*dA*dA*dT*dA*k[5mC]*k[5mC]*k[5mC]; antisense) [compound 830095]
observation-type: % inhibition of SMAD7 mRNA expression
recorded-measurement: 37
--
substance: 799808 (antisense kG*k[5mC]*kT*dG*dA*dA*dA*dG*dA*dA*dA*dG*dT*k[5mC]*k[5mC]*k[5mC]) [compound 799808]
observation-type: % inhibition of SMAD7 mRNA expression
recorded-measurement: 33
--
substance: 799718 (antisense k[5mC]*kT*kG*d[5mC]*dT*dA*dG*dG*dG*dA*dT*dA*d[5mC]*kT*kG*kA) [compound 799718]
observation-type: % inhibition of SMAD7 mRNA expression
recorded-measurement: 52

Supply recorded % inhibition of SMAD7 mRNA expression for 790736 (kT*k[5mC]*kA*dA*dA*d[5mC]*dT*dT*dT*dG*dA*dA*dG*k[5mC]*k[5mC]*kT; antisense) [compound 790736] here. 56

Supply recorded % inhibition of SMAD7 mRNA expression for 829767 (antisense kG*kG*kA*dG*dG*d[5mC]*dA*d[5mC]*dG*d[5mC]*dG*dG*dT*kG*k[5mC]*kG) [compound 829767] here. 6

Supply recorded % inhibition of SMAD7 mRNA expression for 799709 (antisense kT*k[5mC]*kA*dA*dA*d[5mC]*dT*dT*dG*dT*dG*dG*dT*kA*kA*kA) [compound 799709] here. 27

Supply recorded % inhibition of SMAD7 mRNA expression for 830137 (antisense kA*kT*kG*dA*dA*dA*dG*dT*dA*d[5mC]*dA*dA*dT*k[5mC]*kT*k[5mC]) [compound 830137] here. 46

Supply recorded % inhibition of SMAD7 mRNA expression for 830028 (antisense k[5mC]*kA*kG*dT*d[5mC]*dA*dA*dG*dT*dT*dA*d[5mC]*dA*kG*kT*k[5mC]) [compound 830028] here. 70

Supply recorded % inhibition of SMAD7 mRNA expression for 800025 (kA*kG*kT*dA*d[5mC]*dA*dA*dG*dG*dA*d[5mC]*dT*dA*kA*kG*kG; antisense) [compound 800025] here. 42

Supply recorded % inhibition of SMAD7 mRNA expression for 799429 (antisense k[5mC]*kA*k[5mC]*dA*dA*dG*dT*d[5mC]*dA*d[5mC]*dA*dA*d[5mC]*kT*kG*kG) [compound 799429] here. 50

Supply recorded % inhibition of SMAD7 mRNA expression for 799543 (kT*k[5mC]*kA*dA*dA*dT*dG*d[5mC]*dA*dT*dG*dA*dG*kT*kT*kA; antisense) [compound 799543] here. 26

Supply recorded % inhibition of SMAD7 mRNA expression for 830051 (kT*kA*kG*dT*dT*dT*d[5mC]*d[5mC]*dG*dA*dT*dT*dG*kG*k[5mC]*kA; antisense) [compound 830051] here. 18

Supply recorded % inhibition of SMAD7 mRNA expression for 829776 (antisense kG*k[5mC]*kG*dA*dG*dT*dA*dG*dG*dA*d[5mC]*dG*dA*kG*kG*kG) [compound 829776] here. 40

Supply recorded % inhibition of SMAD7 mRNA expression for 799410 (antisense kT*k[5mC]*kT*dG*dT*dT*dT*dA*d[5mC]*dA*d[5mC]*dA*d[5mC]*kA*kT*kT) [compound 799410] here. 42

Supply recorded % inhibition of SMAD7 mRNA expression for 799663 (antisense kG*k[5mC]*kA*d[5mC]*dA*dG*d[5mC]*d[5mC]*dA*dA*dG*dA*dG*kA*kT*kG) [compound 799663] here. 43

Supply recorded % inhibition of SMAD7 mRNA expression for 799589 (kA*kA*kT*dA*dT*d[5mC]*dT*dG*dT*dG*dT*d[5mC]*dT*kA*k[5mC]*kA; antisense) [compound 799589] here. 58

====

# Lookup of reported % inhibition of SMAD7 mRNA expression keyed by entry
Test system: human SMAD7 mRNA
test-name: Antisense inhibition of human SMAD7 mRNA expression in Hep3B cells by 5-10-5 MOE gapmers, single concentration, electroporation, RT-PCR (Example 1, Study 1 and 2)
Format: cell-based
condition-summary: Study 2, electroporation with 15,000 nM antisense oligonucleotide, 5-10-5 MOE gapmers targeting SEQ ID NO: 1 and 2
Strand notation (5' to 3'): a small letter for the sugar, then the base; units joined by * are phosphorothioate-linked, units joined directly phosphodiester-linked; [ ] holds rarer units or linkages, { } end groups; capitals alone tell only the bases. e = 2'-O-(2-methoxyethyl) (MOE); [5mC] = 5-methylcytosine; d = 2'-deoxy (DNA)
Record the value in %, omitting the unit from your answer.

substance: 771660 (antisense eT*eT*e[5mC]*eT*e[5mC]*dT*dT*dG*dT*dT*d[5mC]*dA*dT*dT*dT*eA*eA*eA*e[5mC]*e[5mC]) [compound 771660]
target-of-assay: human SMAD7 mRNA
recorded-measurement: 0
--
substance: 771582 (antisense e[5mC]*eT*eG*eG*e[5mC]*dA*dG*d[5mC]*dT*dG*d[5mC]*dT*dG*dG*dG*eA*e[5mC]*e[5mC]*e[5mC]*e[5mC]) [compound 771582]
target-of-assay: human SMAD7 mRNA
recorded-measurement: 37
--
substance: 771614 (antisense eG*eT*eT*eT*eT*d[5mC]*dT*dA*dA*dG*dT*d[5mC]*d[5mC]*dG*dG*eG*eA*eA*eA*eA) [compound 771614]
target-of-assay: human SMAD7 mRNA
recorded-measurement: 25
--
substance: 771485 (antisense eA*eA*eG*e[5mC]*e[5mC]*d[5mC]*dG*dT*d[5mC]*d[5mC]*dA*d[5mC]*dG*dG*d[5mC]*eT*eG*e[5mC]*eT*eG) [compound 771485]
target-of-assay: human SMAD7 mRNA
recorded-measurement: 15
--
substance: 771639 (antisense e[5mC]*eA*eG*e[5mC]*e[5mC]*dT*dA*dG*dG*dA*dT*dG*dG*dT*dA*e[5mC]*e[5mC]*eT*eT*eG) [compound 771639]
target-of-assay: human SMAD7 mRNA
recorded-measurement: 51

Supply recorded % inhibition of SMAD7 mRNA expression for 771518 (antisense eA*eA*eG*e[5mC]*eA*d[5mC]*dT*d[5mC]*dA*dG*dG*dA*dG*dG*dA*eA*eA*eA*eT*eA) [compound 771518] here. 4

Supply recorded % inhibition of SMAD7 mRNA expression for 771548 (antisense eG*eG*eT*eG*eT*d[5mC]*d[5mC]*dT*dG*d[5mC]*d[5mC]*dG*dA*dT*d[5mC]*eA*eT*eA*e[5mC]*e[5mC]) [compound 771548] here. 19
